target: UniProtKB O75116; experiment: In Vitro Assay
Sequence (O75116 whole entry): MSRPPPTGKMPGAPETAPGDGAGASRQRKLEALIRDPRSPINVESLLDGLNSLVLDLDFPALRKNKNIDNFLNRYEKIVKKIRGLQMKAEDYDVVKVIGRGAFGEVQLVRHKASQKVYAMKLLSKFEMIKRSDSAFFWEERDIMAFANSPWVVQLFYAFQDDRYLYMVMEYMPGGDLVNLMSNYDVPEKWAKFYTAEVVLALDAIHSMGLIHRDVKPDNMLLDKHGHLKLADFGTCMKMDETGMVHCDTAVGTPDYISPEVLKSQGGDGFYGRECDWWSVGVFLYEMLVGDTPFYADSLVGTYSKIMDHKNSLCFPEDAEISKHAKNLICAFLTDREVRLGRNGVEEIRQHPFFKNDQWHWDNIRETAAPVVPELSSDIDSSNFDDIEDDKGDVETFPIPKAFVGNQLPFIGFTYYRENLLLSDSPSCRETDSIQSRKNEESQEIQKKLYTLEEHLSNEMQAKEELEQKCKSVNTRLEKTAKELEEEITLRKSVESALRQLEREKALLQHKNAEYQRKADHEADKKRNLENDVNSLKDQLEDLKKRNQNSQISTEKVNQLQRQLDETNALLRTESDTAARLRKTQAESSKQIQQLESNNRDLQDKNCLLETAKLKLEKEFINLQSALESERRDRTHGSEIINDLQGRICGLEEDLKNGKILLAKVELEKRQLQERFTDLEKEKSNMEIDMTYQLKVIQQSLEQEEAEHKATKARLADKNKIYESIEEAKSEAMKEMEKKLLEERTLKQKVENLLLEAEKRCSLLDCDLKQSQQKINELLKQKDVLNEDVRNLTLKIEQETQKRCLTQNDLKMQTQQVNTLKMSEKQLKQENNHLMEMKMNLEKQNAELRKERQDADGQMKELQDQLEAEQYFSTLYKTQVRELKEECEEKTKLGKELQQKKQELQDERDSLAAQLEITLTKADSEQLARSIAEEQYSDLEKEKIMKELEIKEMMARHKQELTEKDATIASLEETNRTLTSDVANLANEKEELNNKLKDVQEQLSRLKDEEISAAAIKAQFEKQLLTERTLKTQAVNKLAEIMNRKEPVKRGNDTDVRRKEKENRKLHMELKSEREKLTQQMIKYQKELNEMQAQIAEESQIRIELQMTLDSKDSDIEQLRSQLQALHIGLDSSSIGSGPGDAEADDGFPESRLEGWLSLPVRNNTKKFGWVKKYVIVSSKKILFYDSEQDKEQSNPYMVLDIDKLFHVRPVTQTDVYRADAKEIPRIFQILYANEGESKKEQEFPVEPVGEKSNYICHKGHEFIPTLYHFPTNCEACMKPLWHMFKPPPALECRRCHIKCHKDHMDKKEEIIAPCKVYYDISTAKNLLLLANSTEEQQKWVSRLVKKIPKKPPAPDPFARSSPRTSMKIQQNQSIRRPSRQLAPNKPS
Property: IC50 (nM)

1. NC(=O)c1cccnc1O[C@H]1CC2(C[C@H](Nc3nc4c(Cl)cccc4s3)C2)C1 (stereo partly drawn)    76

[I] NC(=O)c1cccnc1O[C@H]1CC2(C[C@H](Nc3nc4c(Cl)cc(Cl)cc4s3)C2)C1 (stereo partly drawn)
[II] NC(=O)c1cccnc1O[C@H]1CC2(C[C@H](Nc3nc4c(F)cc(Cl)cc4s3)C2)C1 (stereo partly drawn)
Q) Between I and II , whose measured IC50 reads higher? Your choice should be expressed through its label.
A) II
(II: 396 nM, I: 105 nM)
